The measurements presented in this section are drawn from patent US20050069911A1.

SYSTEM TESTED: antibody C1
PROTOCOL SUMMARY: peptide competition ELISA; free peptide competes with immobilized target peptide for C1
EXPERIMENTAL ENDPOINT: IC50
Could you kindly put the unit after your number?

Problem: Could you share which IC50 value was measured for YEVQGEVF [CRP-derived 8-mer PET peptide YEVQGEVF] ?
Result: 1000 nM
